# Tested on: HT29 colon
# test_details: NCI tumour cell line growth inhibition, 48 h
quantity_kind: GI50

Here's what some known entries look like.
Clc1ccc2ncc(-c3cccc(NC4CNC4)n3)n2c1    3.21 µM
COc1cc(/C=C/C(=O)N2CCC=CC2=O)cc(OC)c1OC    2.98 µM
CC(=O)[CH-]C(=O)c1ccccc1.CC(=O)[CH-]C(=O)c1ccccc1.CC(C)CCC[C@H](C)C1CCC2[C@@H]3CC=C4C[C@@H]([O-])CC[C@]4(C)C3CC[C@@]21C.CC(C)CCC[C@H](C)C1CCC2[C@@H]3CC=C4C[C@@H]([O-])CC[C@]4(C)C3CC[C@@]21C.Cl.[Ti+4] (stereo partly drawn)    > 25 µM
ClCc1ccc(Cn2cnc3c(Cl)ncnc32)cc1    > 45 µM
NC(=O)CC1(O)C=C(Br)C(=O)C(Br)=C1    4.03 µM
CCN(CC)c1ccc2nc3c4ccccc4c(=O)cc-3n(-c3ccccc3)c2c1    0.902 µM
O=C(Nc1cccc(-n2cc(-c3ccncc3)c(-c3ccc(O)c(Cl)c3)n2)c1)c1cc(C(F)(F)F)cc(C(F)(F)F)c1    5.15 µM

query: # input molecule: Clc1ccc(Nc2nc(Nc3ccccc3)nc(Nc3ccc(-c4cc(-c5ccc(Cl)cc5)on4)cc3)n2)cc1 ; wanted: its GI50
result: 10.8 µM

---

# Test system: SF-295 CNS
# test_details: NCI tumour cell line growth inhibition, 48 h
quantity_kind: TGI (µM)
Enter your answer as a number in µM; do not include the unit.

C[C@@H](NC(=O)c1ncnc(N)c1Cl)c1ncc(C(=O)Nc2cc(C(F)(F)F)c(Cl)cn2)s1    34.7

Could you now consider this next molecule?
query: # input molecule: O=C(N/C(=C\c1ccccc1Cl)c1nc2ccccc2[nH]1)c1ccccc1 ; wanted: its TGI
result: 43.4

---

# System: COLO 205 colon
# test_details: NCI tumour cell line growth inhibition, 48 h
Below, each entry is listed with its recorded TGI.

C/C(=N/O)c1ccc2c(c1)/C(=N/O)c1ccccc1-2    35.6 µM
OC(Cc1ccc2ccccc2n1)(C(F)(F)Cl)C(F)(F)Cl    > 10 µM
C[C@@H]1O[C@]2(O)[C@@H]3CCCN3S(=O)(=O)CCN2C1=O    > 100 µM
C#CCNC(=O)NCCCCC(NC(C)=O)C(=O)NCc1ccccc1 (centres undefined)    > 100 µM
Cc1cc(C)c2c(=O)n(CC(O)CN3CCN(CCOCCO)CC3)sc2n1 (centres undefined)    34.1 µM
C/C(=N\n1c(O)c(C#N)cc(C#N)c1=O)c1ccncc1    > 100 µM

query: # input compound: O=C(N/N=C(/c1nc2ccc([N+](=O)[O-])cc2[nH]c1=O)C(O)c1ccc([N+](=O)[O-])cc1)c1ccncc1 (centres undefined) ; wanted: its TGI
result: > 100 µM

---

# Tested on: U251 CNS
# test_details: NCI tumour cell line growth inhibition, 48 h
quantity_kind: TGI

Here's what some known entries look like.
C(=Nc1cnc2ccccc2c1)c1ccc2ccccc2n1    > 100 µM
CC(=O)Oc1c(OC(C)C)c(C)c(O[Si](C(C)C)(C(C)C)C(C)C)c2[nH]c3ccccc3c12    > 100 µM
[N-]=[N+]=Nc1ccc2c(c1)Sc1ccccc1N2CCCCN1CCN(Cc2ccc(C(=O)c3ccc(CSCC(N)C(=O)O)cc3)cc2)CC1 (stereo not drawn)    26.4 µM
C[C@@H](NC(=O)c1ncnc(N)c1Cl)c1ncc(C(=O)Nc2cc(C(F)(F)F)c(Cl)cn2)s1    > 68.5 µM
Cc1c(-c2ccc(O)cc2)oc(=O)c2ccc(O)cc12    > 100 µM
CCCCN=C(N)c1ccc(N2CCCN(c3ccc(C(N)=NCCCC)cc3)CC2)cc1    > 100 µM

query: # input compound: CCOC(=O)[C@@H]1ON2O[C@H](OC3CCCCC3c3ccccc3)C[C@H]3OC(=O)[C@@H]1C32 (stereo partly drawn) ; wanted: its TGI
result: > 100 µM

query: Next: CCN(CC)CCCNc1ccc([N+](=O)[O-])c2nc3ccc(OC)cc3c(N)c12
result: > 10 µM

query: Next: Nc1cc(S(=O)(=O)O)cc2ccc(S(=O)(=O)O)cc12
result: > 100 µM

query: Next: O=c1c2ccccc2nc(-c2ccccc2Cl)n1-c1nnc(C(F)(F)F)s1
result: 12.9 µM

query: Next: CCOC(=O)c1nc2ccccc2nc1Nc1ccc(OC)cc1
result: > 100 µM
